Target: human P2X4 (Homo sapiens, UniProt Q99571)
Sequence (Q99571 whole entry): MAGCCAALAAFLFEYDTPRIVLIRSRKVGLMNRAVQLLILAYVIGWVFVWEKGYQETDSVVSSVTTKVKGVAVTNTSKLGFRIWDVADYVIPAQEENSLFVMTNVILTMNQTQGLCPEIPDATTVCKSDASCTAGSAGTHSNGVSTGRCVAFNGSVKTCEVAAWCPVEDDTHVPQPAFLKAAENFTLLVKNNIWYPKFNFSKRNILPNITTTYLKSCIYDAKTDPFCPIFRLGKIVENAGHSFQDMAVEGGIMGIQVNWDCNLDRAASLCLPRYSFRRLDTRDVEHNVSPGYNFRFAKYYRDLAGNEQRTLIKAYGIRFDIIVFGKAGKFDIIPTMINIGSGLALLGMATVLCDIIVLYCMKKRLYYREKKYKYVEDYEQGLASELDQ
Assay: Human P2X4 HEK Cell FLIPR Assay
Conditions: HEK293 cells, agonist Bz-ATP at EC80; individual values listed where some fall outside detection range
pIC50: −log10 of the molar value.
Please mark T if the recorded pIC50 is equal to or greater than 7, and F if it falls below.

{"Smiles input": "CC1(Cn2cc(-c3ccc(NC(=O)Cc4ccccc4Cl)cc3S(N)(=O)=O)cn2)COC1", "Category label": "F"}
{"Smiles input": "NS(=O)(=O)c1cc(NC(=O)Cc2ccccc2C(F)(F)F)ccc1-c1cnn(C(F)F)c1", "Category label": "T"}
{"Smiles input": "NS(=O)(=O)c1cc(NC(=O)Cc2c(F)ccc(F)c2Cl)ccc1-n1cc(F)cn1", "Category label": "T"}
{"Smiles input": "Cc1ccn(-c2ccc(NC(=O)Cc3ccccc3Cl)cc2S(N)(=O)=O)n1", "Category label": "T"}
{"Smiles input": "NS(=O)(=O)c1cc(NC(=O)Cc2ccccc2C(F)(F)F)ccc1-n1cc(C(F)(F)F)cn1", "Category label": "F"}

* * *

Target: human P2X4 (Homo sapiens, UniProt Q99571)
Test: Human P2X4 HEK Cell FLIPR Assay
Assay type: cell-based
Conditions: HEK293, HEK293 cells, agonist Bz-ATP at EC80; percentage of maximal inhibition; read-out: Human P2X4 HEK Cells (FLIPR Assay) avg Efficacy [%]
Please mark yes (1) if the recorded Emax is equal to or greater than 90%, and no (0) if it falls below.

{"Compound": "Cc1ncc(-c2ccc(NC(=O)Cc3ccccc3Cl)cc2S(N)(=O)=O)s1 [Example 423]", "Target of assay": "human P2X4 (Homo sapiens, UniProt Q99571)", "Category label": "no (0)"}
{"Compound": "NS(=O)(=O)c1cc(NC(=O)Cc2ccc(Cl)cc2Cl)ccc1-n1cc(C(F)(F)F)cn1 [Example 111]", "Target of assay": "human P2X4 (Homo sapiens, UniProt Q99571)", "Category label": "no (0)"}
{"Compound": "NS(=O)(=O)c1cc(NC(=O)Cc2ccccc2F)cnc1-n1cc(Cl)cn1 [Example 388]", "Target of assay": "human P2X4 (Homo sapiens, UniProt Q99571)", "Category label": "no (0)"}
{"Compound": "NS(=O)(=O)c1c(-c2cnn(C(F)F)c2)ccc(NC(=O)Cc2ccccc2Cl)c1C(F)(F)F [Example 489]", "Target of assay": "human P2X4 (Homo sapiens, UniProt Q99571)", "Category label": "no (0)"}
{"Compound": "NS(=O)(=O)c1cc(NC(=O)Cc2ccccc2C(F)(F)F)ccc1-c1ccc(Cl)nc1 [Example 463]", "Target of assay": "human P2X4 (Homo sapiens, UniProt Q99571)", "Category label": "yes (1)"}
{"Compound": "COc1cccc(Cl)c1CC(=O)Nc1ccc(-n2cc(C#N)cn2)c(S(N)(=O)=O)c1 [Example 216]", "Target of assay": "human P2X4 (Homo sapiens, UniProt Q99571)", "Category label": "yes (1)"}
{"Compound": "NS(=O)(=O)c1cc(NC(=O)Cc2ccccc2Cl)ccc1-n1cnc(Cl)c1 [Example 33]", "Target of assay": "human P2X4 (Homo sapiens, UniProt Q99571)", "Category label": "no (0)"}
{"Compound": "NS(=O)(=O)c1cc(NC(=O)Cc2ccc(F)c(F)c2)ccc1-n1cc(F)cn1 [Example 145]", "Target of assay": "human P2X4 (Homo sapiens, UniProt Q99571)", "Category label": "no (0)"}
{"Compound": "NS(=O)(=O)c1cc(NC(=O)Cc2ccccc2OC(F)(F)F)ccc1-n1cc(Br)cn1 [Example 70]", "Target of assay": "human P2X4 (Homo sapiens, UniProt Q99571)", "Category label": "no (0)"}
{"Compound": "CC(C)(C)n1cc(-c2ccc(NC(=O)Cc3ccccc3Cl)cc2S(N)(=O)=O)cn1 [Example 335]", "Target of assay": "human P2X4 (Homo sapiens, UniProt Q99571)", "Category label": "yes (1)"}
{"Compound": "NS(=O)(=O)c1cc(NC(=O)Cc2ccccc2Cl)ccc1-c1cc(C(F)(F)F)ccn1 [Example 318]", "Target of assay": "human P2X4 (Homo sapiens, UniProt Q99571)", "Category label": "no (0)"}
{"Compound": "N#Cc1cc(NC(=O)Cc2ccccc2Cl)cc(S(N)(=O)=O)c1-n1cc(C(F)(F)F)cn1 [Example 244]", "Target of assay": "human P2X4 (Homo sapiens, UniProt Q99571)", "Category label": "no (0)"}
{"Compound": "NS(=O)(=O)c1cc(NC(=O)Cc2ccc(C(F)F)cc2)ccc1-c1ccc(Cl)nc1 [Example 473]", "Target of assay": "human P2X4 (Homo sapiens, UniProt Q99571)", "Category label": "yes (1)"}
{"Compound": "NS(=O)(=O)c1cc(NC(=O)Cc2ccccc2F)ccc1-n1cc(CC(F)(F)F)cn1 [Example 519]", "Target of assay": "human P2X4 (Homo sapiens, UniProt Q99571)", "Category label": "no (0)"}
{"Compound": "NS(=O)(=O)c1cc(NC(=O)Cc2ccccc2Cl)ccc1-c1cnsc1 [Example 426]", "Target of assay": "human P2X4 (Homo sapiens, UniProt Q99571)", "Category label": "no (0)"}
{"Compound": "N#Cc1cnn(-c2ccc(NC(=O)Cc3c(F)cccc3Cl)cc2S(N)(=O)=O)c1 [Example 183]", "Target of assay": "human P2X4 (Homo sapiens, UniProt Q99571)", "Category label": "yes (1)"}
{"Compound": "NS(=O)(=O)c1cc(NC(=O)Cc2c(Cl)cccc2C(F)(F)F)ccc1-n1cc(Cl)cn1 [Example 103]", "Target of assay": "human P2X4 (Homo sapiens, UniProt Q99571)", "Category label": "yes (1)"}
{"Compound": "NS(=O)(=O)c1cc(NC(=O)Cc2ccccc2Cl)ccc1-c1cscn1 [Example 437]", "Target of assay": "human P2X4 (Homo sapiens, UniProt Q99571)", "Category label": "no (0)"}
{"Compound": "NS(=O)(=O)c1cc(NC(=O)Cc2ccccc2F)ccc1-n1cc(-c2ccncn2)cn1 [Example 405]", "Target of assay": "human P2X4 (Homo sapiens, UniProt Q99571)", "Category label": "no (0)"}
{"Compound": "CC(C)Oc1cccc(-c2ccc(NC(=O)Cc3ccccc3Cl)cc2S(N)(=O)=O)c1F [Example 330]", "Target of assay": "human P2X4 (Homo sapiens, UniProt Q99571)", "Category label": "yes (1)"}
{"Compound": "NS(=O)(=O)c1cc(NC(=O)Cc2ccccc2F)cnc1-n1cc(Br)cn1 [Example 386]", "Target of assay": "human P2X4 (Homo sapiens, UniProt Q99571)", "Category label": "no (0)"}
{"Compound": "Cc1ccc(CC(=O)Nc2ccc(-n3cc(F)cn3)c(S(N)(=O)=O)c2)cc1 [Example 152]", "Target of assay": "human P2X4 (Homo sapiens, UniProt Q99571)", "Category label": "no (0)"}
{"Compound": "NS(=O)(=O)c1cc(NC(=O)Cc2ccccc2Cl)ccc1-n1cnc(C2CC2)n1 [Example 36]", "Target of assay": "human P2X4 (Homo sapiens, UniProt Q99571)", "Category label": "no (0)"}
{"Compound": "CC(C)c1ccccc1CC(=O)Nc1ccc(-n2cc(C#N)cn2)c(S(N)(=O)=O)c1 [Example 213]", "Target of assay": "human P2X4 (Homo sapiens, UniProt Q99571)", "Category label": "yes (1)"}
{"Compound": "NS(=O)(=O)c1cc(NC(=O)Cc2ccccc2Cl)ccc1-c1cc(C2CC2)on1 [Example 438]", "Target of assay": "human P2X4 (Homo sapiens, UniProt Q99571)", "Category label": "no (0)"}
{"Compound": "Cc1nc(C(F)(F)F)nn1-c1ccc(NC(=O)Cc2ccccc2Cl)cc1S(N)(=O)=O [Example 8]", "Target of assay": "human P2X4 (Homo sapiens, UniProt Q99571)", "Category label": "no (0)"}
